Protocol details: Lipophilicity, log D of the compound at pH 7.4 by shake flask method
Format: physicochemical
Experimental setup: buffer
Measured parameter: logD
Returns: the value as a bare number; no unit string appended.

{"columns": ["Molecule", "Measured parameter", "Value reported"],
 "data": [
  ["CC(=O)O[C@H]1C(=O)[C@@]2(C)[C@H]([C@H](OC(=O)c3ccccc3)[C@]3(O)C[C@H](OC(=O)C(OC(=O)/C=C/N4CCC(COC(=O)c5cc[n+](C)cc5)CC4)[C@@H](NC(=O)c4ccccc4)c4ccccc4)C(C)=C1C3(C)C)[C@]1(OC(C)=O)CO[C@@H]1C[C@@H]2O.[Cl-] (stereo partly drawn)", "logD", 1],
  ["CC(=O)O[C@H]1C(=O)[C@@]2(C)[C@H]([C@H](OC(=O)c3ccccc3)[C@]3(O)C[C@H](OC(=O)C(OC(=O)/C=C/N4CCC(COCCC[P+](c5ccccc5)(c5ccccc5)c5ccccc5)CC4)[C@@H](NC(=O)c4ccccc4)c4ccccc4)C(C)=C1C3(C)C)[C@]1(OC(C)=O)CO[C@@H]1C[C@@H]2O.[Br-] (stereo partly drawn)", "logD", 1.3]
]}

For the next question, use this molecule.
// returns reported logD for input CCN(CC)c1ccc2c(-c3ccccc3C(=O)OCC3CCN(/C=C/C(=O)OC(C(=O)O[C@H]4C[C@@]5(O)[C@@H](OC(=O)c6ccccc6)[C@@H]6[C@]7(OC(C)=O)CO[C@@H]7C[C@H](O)[C@@]6(C)C(=O)[C@H](OC(C)=O)C(=C4C)C5(C)C)[C@@H](NC(=O)c4ccccc4)c4ccccc4)CC3)c3ccc(=[N+](CC)CC)cc-3oc2c1.[Cl-] (stereo partly drawn) 1.9

---

Protocol details: Lipophilicity, log D of the compound at pH 7.4
Format: physicochemical
Experimental setup: buffer
Measured parameter: logD
The reply should be a number, written without any unit.

Data request, read-out logD, for CC(=O)O[C@H]1C(=O)[C@@]2(C)[C@H]([C@H](OC(=O)c3ccccc3)[C@]3(O)C[C@H](OC(=O)[C@H](O)[C@@H](NC(=O)c4ccccc4)c4ccccc4)C(C)=C1C3(C)C)[C@]1(OC(C)=O)CO[C@@H]1C[C@@H]2O [PACLITAXEL] 3.6
